Molecular target: Mast/stem cell growth factor receptor Kit (Mus musculus, UniProt P05532)
Sequence (P05532 whole entry): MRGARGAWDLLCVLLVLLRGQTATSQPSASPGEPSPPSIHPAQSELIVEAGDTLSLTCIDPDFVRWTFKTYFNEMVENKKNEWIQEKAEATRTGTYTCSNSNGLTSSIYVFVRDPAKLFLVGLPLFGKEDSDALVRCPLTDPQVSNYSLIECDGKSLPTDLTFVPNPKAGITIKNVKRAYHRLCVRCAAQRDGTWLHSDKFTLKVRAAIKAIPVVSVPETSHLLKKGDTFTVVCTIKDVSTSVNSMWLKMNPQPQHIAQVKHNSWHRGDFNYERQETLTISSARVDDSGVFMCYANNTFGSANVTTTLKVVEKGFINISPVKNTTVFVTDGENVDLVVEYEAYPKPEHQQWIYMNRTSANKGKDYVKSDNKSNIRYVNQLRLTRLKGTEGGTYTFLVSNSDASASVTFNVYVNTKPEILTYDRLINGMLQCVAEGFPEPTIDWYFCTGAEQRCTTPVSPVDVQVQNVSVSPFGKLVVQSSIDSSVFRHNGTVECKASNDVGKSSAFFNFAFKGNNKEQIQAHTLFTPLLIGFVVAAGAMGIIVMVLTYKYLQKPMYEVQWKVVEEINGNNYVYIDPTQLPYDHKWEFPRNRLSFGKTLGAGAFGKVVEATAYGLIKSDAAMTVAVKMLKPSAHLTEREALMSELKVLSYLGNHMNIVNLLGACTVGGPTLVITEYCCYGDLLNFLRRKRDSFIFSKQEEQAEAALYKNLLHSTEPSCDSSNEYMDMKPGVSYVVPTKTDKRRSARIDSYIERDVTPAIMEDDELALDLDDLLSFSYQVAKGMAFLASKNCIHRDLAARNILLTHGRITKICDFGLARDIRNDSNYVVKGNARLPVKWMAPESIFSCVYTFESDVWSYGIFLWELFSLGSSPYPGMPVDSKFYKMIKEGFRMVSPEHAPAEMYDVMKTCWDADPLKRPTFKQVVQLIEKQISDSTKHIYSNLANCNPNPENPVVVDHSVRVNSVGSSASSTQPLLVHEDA
Test: Inhibition of cKit in stem cell factor-stimulated bone marrow derived mouse mast cells assessed as phosphorylation after 1 hr incubation
Some compounds, each annotated with its measured EC50.
Include the unit right after the number.

>>> print(df.to_string())
                                   compound  result_value
0  COc1cc(Nc2ncc(F)c(Nc3ccc4c(n3)NC(=O)C(C)(C)O4)n2)cc(OC)c1OC [R-406]         46 nM

Now consider a different compound.
Recorded EC50 for c1cn2cc(-c3ccc4cn[nH]c4c3)nc(Nc3ccc(N4CCOCC4)cc3)c2n1 [ENTOSPLETINIB] with Mast/stem cell growth factor receptor Kit (Mus musculus, UniProt P05532), please?
445 nM

----------
Experiment: Oral bioavailability in Sprague-Dawley rat at 1 mg/kg
Type: ADME, organism-based
Conditions: in vivo
attribute-measured: bioavailability (%)
Numeric answer only, unit % assumed.

Quick one: bioavailability of c1cn2cc(-c3ccc4cn[nH]c4c3)nc(Nc3ccc(N4CCOCC4)cc3)c2n1 ?
67

----------
Test: Oral bioavailability in Sprague-Dawley rat at 10 mg/kg
Assay type: ADME, organism-based
Details: in vivo
attribute-measured: bioavailability (%)
Numeric answer only, unit % assumed.

In [3]: df
Out[3]:
                                        smi  attribute_measured  value_units  result_value
0  COc1ccc(Nc2nc(-c3ccc4cn[nH]c4c3)cn3ccnc23)cc1OC     bioavailability            %            36

Quick one: bioavailability of COc1ccc(Nc2nc(-c3ccc(C(N)=O)cc3)cn3ccnc23)cc1OC ?
22

----------
Assay: Solubility of the compound in crystalline form in simulated intestinal fluid under fed condition
Assay type: physicochemical
attribute-measured: solubility (µM)
Numeric answer only, unit µM assumed.

Quick one: solubility of c1cn2cc(-c3ccc4cn[nH]c4c3)nc(Nc3ccc(N4CCOCC4)cc3)c2n1 [ENTOSPLETINIB] ?
16

----------
Assay: Clearance in Sprague-Dawley rat at 0.4 mg/kg, iv
Format: ADME, organism-based
Parameters: dose 0.4 mg/kg, route intravenous
Settings: in vivo
attribute-measured: clearance (mL/min/kg)
Numeric answer only, unit mL/min/kg assumed.

Quick one: clearance of c1cn2cc(-c3ccc4cn[nH]c4c3)nc(Nc3ccc(N4CCOCC4)cc3)c2n1 ?
4.5

----------
Biological target: UniProt P43405
Assign labels as follows, please: Yes for EC50 below 70 nM; No for EC50 equal to or exceeding 70 nM.

The following compounds have reported results that may help.
                                        smi       tested_on  class_name
0  CC1(O)CN(c2ccc(Nc3nc(-c4ccc5cn[nH]c5c4)cn4ccnc34)cc2)C1  UniProt P43405          No
1  O=S1(=O)CCN(c2ccc(Nc3nc(-c4ccc5cn[nH]c5c4)cn4ccnc34)cc2)CC1  UniProt P43405         Yes
2  c1cn2cc(-c3ccc4cn[nH]c4c3)nc(Nc3ccc(C4CCOCC4)cc3)c2n1  UniProt P43405          No
3  CN(CCO)c1ccc(Nc2nc(-c3ccc4cn[nH]c4c3)cn3ccnc23)cc1  UniProt P43405         Yes
4  c1cn2cc(-c3ccc4cn[nH]c4c3)nc(Nc3ccc(N4CCCOCC4)cc3)c2n1  UniProt P43405          No

In the following, a different compound is considered.
Does the reported EC50 of the following compound sit strictly below 70 nM? COc1cccc(Nc2nc(-c3ccc4cn[nH]c4c3)cn3ccnc23)c1
No
